- tested system: T1, Claudin 18.2 VLP (UniProt P56856 1-261)
- T1 construct: Antigen coated on ELISA plates, 200 ng/well; source and construct not described; also called Claudin18.2-VLP protein; Claudin18.2 VLP antigen
- protocol description: ELISA, coated antigen 200 ng/well; antibody 0.37 ug/mL
measurement type: absorbance at 450 nm

Sample answers from the record:
binder: 5-hIgG1Fc (Fc fusion, VHH-hIgG1Fc recombinant antibody; also called 5-hlgG1Fc; VHH-hIgG1Fc recombinant antibody of clone 5; not shown: human IgG1 Fc (hIgG1Fc)) QVQLVESGGGLVQTGGSLRLSCAASDSTFSSYIMGWFRQAPGKEREFVAGITWSGGIKDYADSVKGRFTIARDNAKNTVYLQMNSLKPEDAAIYYCAANAIQLTRRSGDYAYWGQGTQVTVSS
absorbance at 450 nm: 0.942

binder: 10-hIgG1Fc (Fc fusion, VHH-hIgG1Fc recombinant antibody; also called 10-hlgG1Fc; VHH-hIgG1Fc recombinant antibody of clone 10; not shown: human IgG1 Fc (hIgG1Fc)) QVQLAESGGGLVQPGGSLRLSCAASGNILSINYMGWYRQAPGKERELVATITRGGTTNYQGDLKGRFIISGDNTKDTVYLQMNNLQPEDTAVYYCYFRINFGILGGLRDYWGQGTQVTVSS
absorbance at 450 nm: 1.46

binder: 8-hIgG1Fc (Fc fusion, VHH-hIgG1Fc recombinant antibody; also called 8-hlgG1 Fc; VHH-hIgG1Fc recombinant antibody of clone 8; not shown: human IgG1 Fc (hIgG1Fc)) QVQLVESGGGLVQPGGSLRLSCAASGSIFGLNFMGWWRQAPGSQRELVAIATSGGSIQYGDSVKGRFTISRDNAKNTVYLQMASLKPEDTAVYYCNVHTYDFLGRDYWGQGTQVTVSL
absorbance at 450 nm: 0.931

Next, consider the following binder.
Please look up its absorbance at 450 nm: 1-hIgG1Fc (Fc fusion, VHH-hIgG1Fc recombinant antibody; also called 1-hlgG1Fc; VHH-hIgG1Fc recombinant antibody of clone 1; not shown: human IgG1 Fc (hIgG1Fc)) EVQLVGSGGGLVQPGGSLRLSCAASGSILNLMTTGWYRQAPGKQRDLVATITFGGTTNYADSVKGRFTISRDKSKNTAYLQMDNLKPEDTAVYFCYADVIVGFQDRRVAWDAGTQVTVSS
0.585
